# System: MOLT-4
# experiment: NCI60 five-dose screen
# Type: cell-based
# assay setup: Homo sapiens, MOLT-4
// log10(GI50) lookup, one value per entry
In our notation, the value equals log10 of GI50 in nM.

Please review the following examples before continuing.
CC[C@]12C=CCN3CC[C@@]4(c5ccc(OC)cc5N(C)[C@H]4[C@@](O)(C(=O)OC)[C@@H]1OC(=O)CCCC[P+](c1ccc(C)cc1)(c1ccc(C)cc1)c1ccc(C)cc1)[C@@H]32 [10a]	2.79
CC[C@]12C=CCN3CC[C@@]4(c5ccc(OC)cc5N(C)[C@H]4[C@@](O)(C(=O)OC)[C@@H]1OC(=O)CCC[P+](C1CCCCC1)(C1CCCCC1)C1CCCCC1)[C@@H]32	3.33

// switching to the query compound
Exercise: GET log10(GI50) where system = MOLT-4 and item = CC[C@]12C=CCN3CC[C@@]4(c5ccc(OC)cc5N(C)[C@H]4[C@@](O)(C(=O)OC)[C@@H]1OC(=O)CCCC[P+](c1ccc(OC)cc1)(c1ccc(OC)cc1)c1ccc(OC)cc1)[C@@H]32 [10b]
Solution: 3.07

====

# System: COLO 205
# experiment: NCI60 one-dose screen
# Format: cell-based
# assay setup: Homo sapiens, COLO 205, read-out: Growth percent
measured metric: activity at 10 µM
Please provide the amount together with its unit, number first.

Please review the following examples before continuing.
CC[C@]12C=CCN3CC[C@@]4(c5ccc(OC)cc5N(C)[C@H]4[C@@](O)(C(=O)OC)[C@@H]1OC(=O)CCCC[P+](c1ccc(OC)cc1)(c1ccc(OC)cc1)c1ccc(OC)cc1)[C@@H]32 [10b]	-64.9%
CCC12C=CCN3CCC4(c5ccc(OC)cc5N(C)C4C(O)(C(=O)OC)C1OC(=O)CCC[P+](c1ccc(C)cc1)(c1ccc(C)cc1)c1ccc(C)cc1)C32 (stereo not drawn) [9a]	-50.2%

Exercise: GET activity at 10 µM where system = COLO 205 and item = CC[C@]12C=CCN3CC[C@@]4(c5ccc(OC)cc5N(C)[C@H]4[C@@](O)(C(=O)OC)[C@@H]1OC(=O)CCCC[P+](C1CCCCC1)(C1CCCCC1)C1CCCCC1)[C@@H]32 [10d]
Solution: -76.6%

====

# Tested on: MDA-MB-468
# experiment: NCI60 one-dose screen
# Format: cell-based
# assay setup: Homo sapiens; MDA-MB-468, 10 μM, one-dose; read-out: Growth percent
Respond with 1.0 for activity at 10 µM values of -80% and above, 0.0 for values below.

// known answers, use as guide
CC[C@]12C=CCN3CC[C@@]4(c5ccc(OC)cc5N(C)[C@H]4[C@@](O)(C(=O)OC)[C@@H]1OC(=O)CCC[P+](c1ccc(OC)cc1)(c1ccc(OC)cc1)c1ccc(OC)cc1)[C@@H]32 [9b]	0.0
CC[C@]12C=CCN3CC[C@@]4(c5ccc(OC)cc5N(C)[C@H]4[C@@](O)(C(=O)OC)[C@@H]1OC(=O)CCC[P+](c1cc(C)c(OC)c(C)c1)(c1cc(C)c(OC)c(C)c1)c1cc(C)c(OC)c(C)c1)[C@@H]32 [9e]	0.0
CCC12C=CCN3CCC4(c5ccc(OC)cc5N(C)C4C(O)(C(=O)OC)C1OC(=O)c1ccc(C[P+](c4ccccc4)(c4ccccc4)c4ccccc4)cc1)C32 (centres unmarked) [compound 12]	1.0
CC[C@]12C=CCN3CC[C@@]4(c5ccc(OC)cc5N(C)[C@H]4[C@@](O)(C(=O)OC)[C@@H]1OC(=O)CCC[P+](c1ccccc1)(c1ccccc1)c1ccccc1)[C@@H]32 [compound 3, reference compound]	1.0

With those in mind, consider the next compound.
Exercise: Could you verify whether the entry CC[C@]12C=CCN3CC[C@@]4(c5ccc(OC)cc5N(C)[C@H]4[C@@](O)(C(=O)OC)[C@@H]1OC(=O)CCCC[P+](c1ccc(F)cc1)(c1ccc(F)cc1)c1ccc(F)cc1)[C@@H]32 [10c] shows activity at 10 µM of no less than -80%?
Solution: 1.0
